Test system: Saccharomyces cerevisiae
assayProtocol: protein stability index of tFT-peptide fusion (C-terminal peptide) (PSI (0-1 scale)); higher = more stable (slower turnover)
conditionSummary: genetic background: wild type; temperature: 30 C
Reported protein stability index by item:

Consider the worked cases shown below.
chainSequence	studyTarget	protein stability index
SLLTQSPLLPPP	Saccharomyces cerevisiae	0.777
PPRQSHHPNPQH	Saccharomyces cerevisiae	0.682
IFAWPFSATIPW	Saccharomyces cerevisiae	0.784
FALPPPPHLNPP	Saccharomyces cerevisiae	0.625
FRDEGYCFADLV	Saccharomyces cerevisiae	0.71
ICGAGPKCCCSV	Saccharomyces cerevisiae	0.635
WSCFLLLLSLSL	Saccharomyces cerevisiae	0.45
RGWRYRAEGFRG	Saccharomyces cerevisiae	0.663

// recorded protein stability index for `GGWGSSLGVWVG` : 0.253

// recorded protein stability index for `LLFSSPPARMCP` : 0.786

// recorded protein stability index for `VKGLFLHFLESS` : 0.695

// recorded protein stability index for `PALLTICRTSLP` : 0.64

// recorded protein stability index for `GGAGGNLAPGRG` : 0.638

// recorded protein stability index for `SCSHYLPAPLPF` : 0.577

// recorded protein stability index for `GGAWRGWCVGVR` : 0.644

// recorded protein stability index for `KPQFNLQYTVKI` : 0.616

// recorded protein stability index for `GTLDTDAGTINH` : 0.683

// recorded protein stability index for `GRVGGRAGGRGR` : 0.691

---

Tested on: Saccharomyces cerevisiae
assayProtocol: protein stability index of tFT-peptide fusion (C-terminal peptide) (PSI (0-1 scale)); higher = more stable (slower turnover)
conditionSummary: genetic background: wild type; temperature: 30 C
Reported protein stability index by item:

chainSequence	result
GFGPPGPCSYVR	0.691
PSPLRPSPAVPS	0.716
KKKKKKVKNTKE	0.698
VCRGRGVEGIGW	0.695
PPPPPGLAPPSP	0.681
LRDYLLWRECTL	0.692

Moving on to another sequence below.
// recorded protein stability index for `TARGIRGICKSI` : 0.711

---

Reported protein stability index by item:
System: Saccharomyces cerevisiae;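 further: PSI is a weighted mean of sequencing reads over stability bins, variants kept only with over 10 reads, mCherry proximal and sfGFP distal, peptide attached via GGGS linker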
assayProtocol: protein stability index of tFT-peptide fusion (C-terminal peptide) (PSI (0-1 scale)); higher = more stable (slower turnover)
conditionSummary: genetic background: wild type; temperature: 30 C

Consider the worked cases shown below.
chainSequence	protein stability index
GSSGRFFHVVVF	0.644
GRRVPGPLRSSE	0.709
VCSVVGGGYSWG	0.686

// recorded protein stability index for `FCLMLWGAVLFL` : 0.314

// recorded protein stability index for `HDLRRRVVSVMV` : 0.372

// recorded protein stability index for `WALVLLVPVWFD` : 0.471

// recorded protein stability index for `PPPAPPPHRDLS` : 0.709

// recorded protein stability index for `SCPLSARLYASL` : 0.675

// recorded protein stability index for `ASLDTALVHITL` : 0.622

// recorded protein stability index for `SVPPPPRTPSSI` : 0.666

// recorded protein stability index for `RDVWPFTGKRAL` : 0.672

// recorded protein stability index for `YDTGSRASWIAF` : 0.714

// recorded protein stability index for `CLLLGDALGYYG` : 0.683

// recorded protein stability index for `PALKQEGRPEHS` : 0.694

// recorded protein stability index for `GGGSVGMWGWWV` : 0.625

// recorded protein stability index for `LSRWGKTKGKKW` : 0.62

// recorded protein stability index for `CMFSSTSSTNVN` : 0.731

// recorded protein stability index for `LPPPLPPRPSPP` : 0.728

// recorded protein stability index for `WWFGGETGVGGR` : 0.712
